# assay_comment: BET inhibitor-based combinations targeting novel dependencies in MECOM-rearranged (r) AML: AML-194 cell line (AID 2202237; note: nearly all actives have a fitted effect of over 40% in size)
# experimental_conditions: AML-194 (MECOM-r AML) viability, CellTiter-Glo, 48 h; series mostly up to 46 µM
Results filed as inconclusive are left out. Calls of active or inactive are those of the source. Calls come from the whole dose curve; as a rule, active = well fitted inhibition curve with a large enough effect; inconclusive = small, poorly fitted or top-dose-only effect; inactive = flat fitted curve, though single readings scatter.
Labels: label 1 = active, label 0 = inactive

1. O=C1NCCc2[nH]c(-c3ccncc3)cc21 | label 1
2. Cc1c(C)n(Cc2ccc(-c3ccccc3C(=O)O)cc2)c2ccc(C(=O)N[C@@H](C)c3ccc([N+](=O)[O-])cc3)cc12 | label 0
3. Cc1ccc(-n2nc(C(C)(C)C)cc2NC(=O)Nc2ccc(OCCN3CCOCC3)c3ccccc23)cc1 | label 0
4. Cc1nc(Nc2n[nH]c3c2CN(C(=O)N[C@H](CN(C)C)c2ccccc2)C3(C)C)c2sccc2n1 | label 1
5. O=C1C(c2c(O)[nH]c3ccccc23)=Nc2ccccc21 | label 0
6. NCc1c[nH]c(=S)n1[C@H]1CCc2c(F)cc(F)cc2C1 | label 0
7. C[C@@H](CN1CC(=O)NC(=O)C1)N1CC(=O)NC(=O)C1 | label 1
8. CCN1CCN(C(=O)N[C@@H](C(=O)N[C@@H]2C(=O)N3C(C(=O)O)=C(CSc4nnnn4C)CS[C@H]23)c2ccc(O)cc2)C(=O)C1=O | label 0
9. CCOCc1nc2c(N)nc3ccccc3c2n1CC(C)(C)O | label 0
10. CCNC(=O)C#Cc1ccc2c(C(=Nc3ccc(CN(C)C)cc3)c3ccccc3)c(O)[nH]c2c1 | label 1
11. CC(=O)O[C@]1(C(C)=O)CC[C@H]2[C@@H]3C=C(Cl)C4=CC(=O)[C@@H]5C[C@@H]5[C@]4(C)[C@H]3CC[C@@]21C | label 0
12. COc1cc(CNC(=O)CCCC/C=C/C(C)C)ccc1O | label 1
13. Fc1ccc2[nH]ccc2c1-c1nc(N2CCOCC2)c2sc(CN3CCN(CC4CC4)CC3)cc2n1 | label 1
14. CNc1nc(Nc2ccc(C(=O)N3CCOCC3)cc2OC)ncc1Cl | label 0
15. NC1CCC(N[C@@H]2C[C@H]2c2ccccc2)CC1 (some centres not stated) | label 0
16. CC(C)(CO)[C@@H](O)C(=O)NCCC(=O)O | label 0
17. Clc1ccc(C(Cn2ccnc2)OCc2c(Cl)cccc2Cl)c(Cl)c1 (configuration not stated) | label 1
18. O=P(O)(O)C(O)(Cc1cccnc1)P(=O)(O)O | label 0
19. CCCC(CCC)C(=O)O | label 0
20. Cc1ccc(/C=N/NC(=O)c2ccccc2Oc2ccccc2)o1 | label 0
21. CC1(C)CNc2cc(NC(=O)c3cccnc3NCc3ccncc3)ccc21 | label 0
22. Cc1ccc2nc(NC(=O)CSc3nc4c(c(=O)n3-c3ccccc3)SCC4)sc2c1 | label 0

====

Catalogue of compounds with associated activation
# target_entity: Cellular tumor antigen p53 (Homo sapiens)
# assay_comment: Primary qHTS for small molecule compounds that upregulate eGFP-tagged delta133p53alpha (in N-terminal) cells. (AID 2060322); note: nearly all actives have a fitted effect of over 75% in size;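 for activation: cells pre-induced with doxycycline then dosed without doxycycline; 0% = DMSO vehicle and 100% = reference activator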
# experimental_conditions: NCI-H358 eGFP-delta133p53alpha fluorescence, 24 h; hits give high values
Inconclusive results are not listed.
readout_type: activation (%)

1. CC(C)(C)c1cc(Br)cc([C@H](CC(=O)O)NC(=O)CNC(=O)c2cc(O)cc(NC3=NCC(O)CN3)c2)c1 (stereo partly drawn) | -5.25
2. CC1=CCC[C@@H]2[C@@](C)(CCc3ccoc3)[C@H](C(=O)O)CC[C@@]12C | 14.3
3. C/C=C(\C)C(=O)OC1C(C)C2(O)C(C=C(CO)CC3(O)C(=O)C(C)=CC32)C2C(C)(C)C12OC(C)=O (stereo not drawn) | 8.93
4. C/C=C(\C)C(=O)OCC1OC(OC2OC(COC(=O)/C(C)=C/C)C(OC3OC(CO)C(OC(=O)/C(C)=C/C)C(OC(=O)/C(C)=C/C)C3O)C(O)C2O)C(O)C(O)C1OC1OC(CO)C(OC(=O)/C(C)=C/C)C(OC(=O)/C(C)=C/C)C1O (stereo not drawn) | -19.8
5. CC[N+](CC)(CC)CCOc1ccc(/C=C/c2ccccc2)cc1 | -19.2
6. CCCC(=O)NCCc1c2n(c3ccc(OC)cc13)CCCc1ccccc1-2 | -45.5
7. O=C(O[C@@H]1O[C@H](CO)[C@@H](O)[C@H](O)[C@H]1O)c1c(O)cc(O)cc1/C=C/c1ccccc1 | -23.7
8. O=C(c1ccc2c(c1)OCCO2)N1CCCCC1 | 8.27
9. O=C(O)c1ccnc(-c2cc(C(=O)NCCc3ccccc3)ccn2)c1 | 4.47
10. COc1cc(CO)ccc1O[C@@H]1O[C@H](CO)[C@@H](O)[C@H](O)[C@H]1O | -7.14
11. O=C1/C(=C/c2ccsc2)CC/C1=C\c1cccs1 | 14.3
12. CCC(C)/C=C(C)/C=C/C1=CC2=C(Cl)C(=O)C(C)(OC(C)=O)C(=O)C2=CN1C(CCCN=C(N)N)C(=O)O (stereo not drawn) | 16
13. OC[C@H]1O[C@@H](n2cnc3c(NCc4ccc(O)cc4)ncnc32)[C@H](O)[C@@H]1O | 13.7
14. COc1ccc2c(c1)CCCC2=O | 18.6
15. CC(=O)NCC(=O)N1[C@H]2CC[C@H]1c1cc(Nc3ncc(C(F)(F)F)c(NC4CCC4)n3)ccc12 | 32.7
16. O=C(Nc1ccc(S(=O)(=O)Nc2nccs2)cc1)C(c1ccccc1)c1ccccc1 | -2.86
17. CCC(C)/C=C(C)/C=C/C1=CC2=C(Cl)C(=O)C(C)(OC(C)=O)C(=O)C2=CN1CCCC(=O)O (stereo not drawn) | 0.763
18. Nc1ccc(S(=O)(=O)NC(=O)c2ccccc2)cc1 | 5.08

====

# target_entity: Cellular tumor antigen p53 (Homo sapiens)
# assay_comment: Primary qHTS for small molecule compounds that upregulate eGFP-tagged delta133p53alpha (in N-terminal) cells. (AID 2060322); note: nearly all actives have a fitted effect of over 75% in size;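 for activation: cells pre-induced with doxycycline then dosed without doxycycline; 0% = DMSO vehicle and 100% = reference activator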
# experimental_conditions: NCI-H358 eGFP-delta133p53alpha fluorescence, 24 h; hits give high values
Records with an inconclusive call do not appear.
readout_type: activation (%)

1. Cc1ccccc1C(=O)Nc1ccc(C(=O)N2CCC[C@@H](O)c3cc(Cl)ccc32)c(C)c1 | 0
2. O=S(c1cc(Cl)cc(Cl)c1O)c1cc(Cl)cc(Cl)c1O | -0.565
3. CC(C)S(=O)(=O)Nc1ccc(F)c(C(=O)c2c[nH]c3ncc(-c4cccnc4)cc23)c1F | 28.6
4. COc1cc(NS(=O)(=O)c2ccc(N)cc2)ncn1 | -5.86
5. C=C1CC2[C@@]3(C)C=CC(=O)C(C)(C)C3=C(O)C(=O)[C@@]2(C)C2(C(=O)OC)C(=O)C(C)OC(=O)[C@@]12C (stereo not given in full) | -3.82

====

# target_entity: Cellular tumor antigen p53 (Homo sapiens)
# assay_comment: Primary qHTS for small molecule compounds that upregulate eGFP-tagged delta133p53alpha (in N-terminal) cells. (AID 2060322); note: nearly all actives have a fitted effect of over 75% in size; note: potency is the fitted concentration of half-maximal effect;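 for activation: cells pre-induced with doxycycline then dosed without doxycycline; 0% = DMSO vehicle and 100% = reference activator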
# experimental_conditions: NCI-H358 eGFP-delta133p53alpha fluorescence, 24 h
# Description: Assay Development and Screening Technology National Center for Advancing Translational Sciences (NCATS), National Institute of Health (NIH), Rockville, Maryland Cellular senescence (CS) is one of the hallmarks of aging and age-related diseases. […] Here we report the development and validation of a cell-based quantitative high throughput screening (qHTS) assay in 1,536-well format. […]
Records with an inconclusive call do not appear. Activity calls are given as the source filed them. Calls come from the whole dose curve; as a rule, active = well fitted activation curve with a large enough effect; inconclusive = small, poorly fitted or top-dose-only effect; inactive = no such curve, though single readings can be large or run the other way.
readout_type: Potency

1. C=C1C(=O)OC[C@@H]1C/C=C(\C)CC1CC(C)C(=O)O1 (stereo not given in full) | 23.9 µM (active)
2. COC(C(=O)N1Cc2[nH]nc(NC(=O)c3ccc(N4CCN(C)CC4)cc3)c2C1)c1ccccc1 (stereo not given) | 23.9 µM (active)
3. Nc1ncnc2c1c(-c1cnc3[nH]ccc3c1)nn2C1CCCC1 | 26.9 µM (active)
4. CNC(=O)c1ccccc1Nc1nc(Nc2ccc(N3CCNCC3)cc2)ncc1Cl | 1.35 µM (active)
5. CN(C)C(=S)SC(=S)N(C)C | 21.9 µM (active)
6. O=C(NC1CCNCC1)c1[nH]ncc1NC(=O)c1c(Cl)cccc1Cl | 0.685 µM (active)
7. C(#Cc1nc2ncccc2nc1OCCN1CCCC1)c1ccccc1 | 6.75 µM (active)
8. COCCN1CCN(Cc2ccc(-c3n[nH]c4c3C(=O)c3c(NC(=O)NN5CCOCC5)cccc3-4)cc2)CC1 | 0.0757 µM (active)
9. C=CC(=O)Nc1cc(Nc2nccc(-c3cn(C)c4ccccc34)n2)c(OC)cc1N(C)CCN(C)C | 3.79 µM (active)
10. CCN1C(C)(C)CC(Oc2ccc(C(=O)Nc3ccc(NC(=O)Nc4cc(C(C)(C)C)on4)cc3)nc2)CC1(C)C | 21.3 µM (active)
